B1: Poly(rC)-binding protein 1, residues 278 to 350; numbered along this chain, Q15365 (parent)
chain: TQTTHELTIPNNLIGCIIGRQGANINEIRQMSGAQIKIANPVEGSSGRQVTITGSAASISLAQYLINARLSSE

Variants of: B1
assayProtocol: abundance fitness (aPCA) (normalised: wild type 0, dead -1); higher = more abundant; growth selection in yeast, the domain comes from the species named
testSettings: Homo sapiens
Using abundance fitness as the sorting value, the categories are low class: < -0.2; middle class: ≥ -0.2 and < -0.09; high class: ≥ -0.09

[Q] Hi, small favor: classify S46I by its abundance fitness when you get a moment.
[A] middle class

[Q] State the class of the variant shown: T53P
[A] low class

[Q] Into which category would you place I9V ?
[A] high class

[Q] Consider P41S . To which abundance fitness class does it belong?
[A] high class

[Q] Hi there! Could you help me figure out the category for A57T please?
[A] middle class

[Q] Which class holds N26H ?
[A] middle class

[Q] Kindly state the category for this variant: I25M
[A] middle class

[Q] Which band does I14H fall in?
[A] low class

[Q] Form field 'band' for I66L
[A] high class

[Q] Form field 'band' for V50N
[A] low class
